pKi: −log10 of the molar value.
Please find below pKi measurements for Retinoic acid receptor RXR-alpha (Homo sapiens, UniProt P19793), combined from several publications.
Sequence (P19793 whole entry): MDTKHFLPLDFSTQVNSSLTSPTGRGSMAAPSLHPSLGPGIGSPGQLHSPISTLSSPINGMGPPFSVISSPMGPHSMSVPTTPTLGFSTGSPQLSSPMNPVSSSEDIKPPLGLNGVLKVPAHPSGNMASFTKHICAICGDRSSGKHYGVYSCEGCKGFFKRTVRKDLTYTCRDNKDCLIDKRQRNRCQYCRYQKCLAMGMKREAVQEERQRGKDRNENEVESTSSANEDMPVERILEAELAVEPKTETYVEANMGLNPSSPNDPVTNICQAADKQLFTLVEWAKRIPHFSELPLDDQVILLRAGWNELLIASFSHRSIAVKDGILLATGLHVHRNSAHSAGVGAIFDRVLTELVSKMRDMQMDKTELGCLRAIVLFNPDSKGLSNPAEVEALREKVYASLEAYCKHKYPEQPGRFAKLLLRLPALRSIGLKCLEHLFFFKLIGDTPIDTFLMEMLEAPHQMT
measured.attribute: pKi

Cc1cc(N(c2ccc(C(=O)O)cc2)C(C)C)cc2c1OCC2(C)C
5.04

a = CCN(c1ccc(C(=O)O)cc1)c1cc2c(cc1C)C(C)(C)CC=C2C(C)(C)C
b = CCOc1cc2c(cc1\C(C)=C/C=C/C(C)=C/C(=O)O)C(C(C)(C)C)=CCC2(C)C
[Q] Dear colleague, could you let me know whether a or b has the lower recorded pKi? Thanks. Please respond with the label that marks your chosen entry.
[A] a
(a: 8.15, b: 8.62)

P = CC(C)N(c1ccc(C(=O)O)cc1)c1ccc2c(c1)C(C)(C)OC2(C)C
Q = CCOc1c(\C(=C/C=C/C(C)=C/C(=O)O)CC)cc2c(c1Cl)OC(C)(C)C=C2C(C)C
[Q] Dear colleague, could you let me know whether P or Q has the lower recorded pKi? Thanks. Please respond with the label that marks your chosen entry.
[A] P
(P: 6.19, Q: 7.89)

I = CCOc1cc2c(cc1\C(C)=C(F)/C=C/C(C)=C/C(=O)O)C(C)=CCC2(C)C
II = Cc1cc2c(cc1N(C)c1ccc(C(=O)O)cc1)N(C(C)C)CCC2(C)C
III = CCCCOc1c(\C(C)=C/C=C/C(=C/C(=O)O)C(F)(F)F)cc(C(C)C)cc1C(C)C
IV = COCC1[C@@H](/C=C/C(C)=C/C(=O)O)C1(C)c1cc(C(C)C)cc(C(C)C)c1 (stereo in doubt)
V = CCOc1cc2c(cc1\C(C)=C(F)/C=C/C(C)=C/C(=O)O)C(C(C)C)=CC(C)(C)O2
[Q] Put these in order: smallest pKi first, largest last. Order the labels as requested and list them.
[A] III, II, IV, V, I
(III: 5.88, II: 6.66, IV: 7.96, V: 8.22, I: 8.70)

I = CCOc1cc2c(cc1\C(CC)=C(F)/C=C/C(C)=C/C(=O)O)C(C(C)(C)C)=CCC2(C)C
II = CCOc1cc2c(cc1\C(=C/C=C/C(C)=C/C(=O)O)CC)C(C)=CC(C)(C)O2
III = CCOc1cc2c(cc1\C(CC)=C(F)/C=C/C(C)=C/C(=O)O)C(C)(C)CCC2(C)C
IV = CC/C(=C(F)/C=C/C(C)=C/C(=O)O)c1cc2c(cc1OC)OC(C)(C)C=C2C(C)(C)C
[Q] # rank_down: sort by pKi, max first Order the labels as requested and list them.
[A] I, IV, III, II
(I: 8.70, IV: 8.00, III: 7.66, II: 6.70)

P = CCN(c1ccc(C(=O)O)cc1)c1cc2c(cc1OCc1ccc(C)cc1)C(C)(C)CC=C2C(C)C
Q = Cc1cc2c(cc1Nc1ccc(C(=O)O)cc1)N(C(C)C)CCC2(C)C
R = CCOc1cc2c(cc1\C(CC)=C(F)/C=C/C(C)=C(\F)C(=O)O)C(C)(C)CCC2(C)C
S = CCCN(c1ccc(C(=O)O)cc1)c1cc2c(cc1OCc1ccccc1)C(C)(C)CC=C2C(C)C
[Q] Put these in order: smallest pKi first, largest last. Order the labels as requested and list them.
[A] Q, S, R, P

a = CCOc1cc2c(cc1\C(CC)=C(F)/C=C/C(C)=C/C(=O)O)C(CC)=CCC2(C)C
b = COc1cc2c(cc1\C(C)=C(F)/C=C/C(C)=C/C(=O)O)C(C(C)(C)C)=CC(C)(C)O2
c = CCCCOc1c(\C(C)=C/C=C/C(=C\C(=O)O)C(F)(F)F)cc(C(C)C)cc1C(C)C
[Q] # rank_down: sort by pKi, max first Order the labels as requested and list them.
[A] a, b, c

A = CCOc1cc2c(cc1\C(C)=C(F)/C=C/C(C)=C/C(=O)O)C(C(C)(C)C)=CCC2(C)C
B = CC/C(=C(F)/C=C/C(C)=C(\F)C(=O)O)c1cc2c(cc1OCOC)C(C)(C)CCC2(C)C
C = COc1cc2c(cc1C(=C/C=C/C(C)=C/C(=O)O)C(F)(F)F)C(C)(C)CCC2(C)C (stereo in doubt)
D = CC(C)c1cc(N(C)c2ccc(C(=O)O)cc2)cc2c1OCC2(C)C
[Q] # rank_down: sort by pKi, max first Order the labels as requested and list them.
[A] A, B, C, D

I = CCCCCCCOc1cc2c(cc1N(CC)c1ccc(C(=O)O)cc1)C(C)=CCC2(C)C
II = CCCN1CCC(C)(C)c2cc(C(C)C)cc(\C(C)=C(F)/C=C/C(C)=C/C(=O)O)c21
[Q] Hi there! Just curious which has the higher pKi between I and II . Please respond with the label that marks your chosen entry.
[A] II
(II: 9.00, I: 6.76)

---

Please find below Ki measurements for Retinoic acid receptor RXR-alpha (Homo sapiens, UniProt P19793), combined from several publications.
measured.attribute: Ki (nM)

CCCOc1cc2c(cc1C(=C/C=C/C(C)=C/C(=O)O)C(F)(F)F)C(C)(C)CCC2(C)C (stereo in doubt)
22
CCN(c1ccc(C(=O)O)cc1)c1cc(C(C)C)c2c(c1)C(C)(C)CO2
1.8

I = C=CCN(c1ccc(C(=O)O)cc1)c1ccc2c(c1)C(C(C)(C)C)=CCC2(C)C
II = CCN1CCC(C)(C)c2cc(C(C)C)cc(\C(C)=C(F)/C=C/C(C)=C/C(=O)O)c21
[Q] Hi there! Just curious which has the higher Ki between I and II . Please respond with the label that marks your chosen entry.
[A] I

---

Please find below Ki measurements for Retinoic acid receptor RXR-alpha (Homo sapiens), combined from several publications.
measured.attribute: Ki (µM)

CCOc1cc2c(cc1\C(=C/C=C/C(C)=C/C(=O)O)CC)C(C)=CCC2(C)C
0.0087

1 = CCN(c1ccc(C(=O)O)cc1)c1cc(C(C)(C)C)c2c(c1)C(C)(C)CO2
2 = CCN(c1ccc(C(=O)O)cc1)c1ccc2c(c1)C(C)(C)CC(=O)N2C(C)C
[Q] Dear colleague, could you let me know whether 1 or 2 has the lower recorded Ki? Thanks. Please respond with the label that marks your chosen entry.
[A] 1
